Values from patent US9771370B2

target of assay: Recombinant human IDO (Homo sapiens)
procedure details: Bridge-IT tryptophan fluorescence assay of human IDO-1 inhibition
condition set: recombinant human IDO 7.5 nM, L-tryptophan
property: IC50

Output measured IC50 for this item: OC(CC1c2nc(C3CC3)ccc2-c2cncn21)C1CCC(F)(F)CC1 (single isomer, unassigned) [Compound 57b]
100 to 1000 nM

Output measured IC50 for this item: CC(C)(O)C1CCC(F)(CCC2c3c(Cl)cccc3-c3cncn32)CC1 (stereo not shown) [Compound 107b]
100 to 1000 nM

Output measured IC50 for this item: OC(CC1c2ncccc2-c2cncn21)C1CCC2(CC1)CC2 (single isomer, unassigned) [Compound 29a]
100 to 1000 nM

Output measured IC50 for this item: OCC1CCC(F)(CCC2c3ccccc3-c3cncn32)CC1 (single isomer, unassigned) [Compound 59b]
< 100 nM

Output measured IC50 for this item: OC(CC1c2ncccc2-c2cncn21)C1CCOCC1 (single isomer, unassigned) [Compound 92c]
> 1000 nM

Output measured IC50 for this item: COc1ccc2c(n1)C(CC(N)C1CCC(C)(C)CC1)n1cncc1-2 (single isomer, unassigned) [Compound 119c]
100 to 1000 nM

Output measured IC50 for this item: COc1ccc2c(n1)C(CC(N)C1CCC(C)(C)CC1)n1cncc1-2 (single isomer, unassigned) [Compound 119d]
> 1000 nM

---

target of assay: Recombinant human IDO (Homo sapiens)
procedure details: Bridge-IT tryptophan fluorescence assay of human IDO-1 inhibition
condition set: recombinant human IDO 7.5 nM, L-tryptophan
Consider the following compounds; for each one, report its IC50.

Output measured IC50 for this item: FC1(CCC2c3ccccc3-c3cncn32)CCCCC1 (single isomer, unassigned) [Compound 1a]
> 1 µM

Output measured IC50 for this item: OC(CC1c2ncccc2-c2cncn21)C1CCC(F)(F)CC1 (single isomer, unassigned) [Compound 22d]
> 1 µM

Output measured IC50 for this item: OC1CCC(F)(CCC2c3c(F)cccc3-c3cncn32)CC1 (single isomer, unassigned) [Compound 16b]
0.1 to 1 µM

Output measured IC50 for this item: OC1(C2CCC(F)(CCC3c4c(F)cccc4-c4cncn43)CC2)CC1 (mixture of isomers) [Compound 85a]
< 0.1 µM

Output measured IC50 for this item: O=C(C1CCC(F)(CCC2c3c(Cl)cccc3-c3cncn32)CC1)N1CCCCC1 (single isomer, unassigned) [Compound 115a]
< 0.1 µM

Output measured IC50 for this item: OC(CC1c2nccc(F)c2-c2cncn21)C1CCCCC1 (single isomer, unassigned) [Compound 101a]
> 1 µM

Output measured IC50 for this item: NC(=O)CC1CCC(F)(CCC2c3c(F)cccc3-c3cncn32)CC1 (single isomer, unassigned) [Compound 116a]
> 1 µM

Output measured IC50 for this item: NC(=O)CC1CCC(F)(CCC2c3ccccc3-c3cncn32)CC1 (single isomer, unassigned) [Compound 112d]
< 0.1 µM

Output measured IC50 for this item: OCC1CCC(F)(CCC2c3c(F)cccc3-c3cncn32)CC1 (single isomer, unassigned) [Compound 84d]
< 0.1 µM

Output measured IC50 for this item: OC(CC1c2nc(C3CC3)ccc2-c2cncn21)C1CCC(F)(F)CC1 (single isomer, unassigned) [Compound 57c]
0.1 to 1 µM

Output measured IC50 for this item: COc1ccc2c(n1)C(CC(N)C1CCC(F)(F)CC1)n1cncc1-2 (single isomer, unassigned) [Compound 120a]
> 1 µM

Output measured IC50 for this item: FC(CC1c2ncccc2-c2cncn21)C1CCCCC1 (single isomer, unassigned) [Compound 97a]
> 1 µM

Output measured IC50 for this item: Oc1cccc2c1-c1cncn1C2CCC1(F)CCC(O)CC1 (stereo not drawn) [Compound 44a]
0.1 to 1 µM

Output measured IC50 for this item: OC1CCC(C(F)(F)CC2c3c(F)cccc3-c3cncn32)CC1 (stereo not drawn) [Compound 75a]
< 0.1 µM

Output measured IC50 for this item: OC1CCC(C(O)CC2c3c(ccnc3F)-c3cncn32)CC1 (mixture of isomers) [Compound 4a]
> 1 µM

---

Consider the following compounds; for each one, report its IC50.
target of assay: Recombinant human IDO (Homo sapiens, UniProt P14902)
Sequence (P14902 whole entry): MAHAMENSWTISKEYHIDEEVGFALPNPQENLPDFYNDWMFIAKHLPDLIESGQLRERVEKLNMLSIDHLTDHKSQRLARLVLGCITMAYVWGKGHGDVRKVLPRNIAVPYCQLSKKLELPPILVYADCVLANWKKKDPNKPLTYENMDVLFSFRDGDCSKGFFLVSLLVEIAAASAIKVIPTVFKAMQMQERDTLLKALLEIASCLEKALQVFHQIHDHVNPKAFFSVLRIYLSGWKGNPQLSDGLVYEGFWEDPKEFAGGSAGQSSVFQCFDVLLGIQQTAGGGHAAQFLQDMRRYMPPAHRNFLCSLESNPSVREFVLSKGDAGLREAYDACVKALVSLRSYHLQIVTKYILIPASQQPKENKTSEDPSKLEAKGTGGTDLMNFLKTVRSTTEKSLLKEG
procedure details: Bridge-IT tryptophan fluorescence assay of human IDO-1 inhibition
condition set: recombinant human IDO 7.5 nM, L-tryptophan

Output measured IC50 for this item: Fc1ccc(F)c2c1-c1cncn1C2CCC1(F)CCCCC1 (single isomer, unassigned) [Compound 37b]
100 to 1000 nM

Output measured IC50 for this item: OC1CCC(F)(CCC2c3ccccc3-c3cncn32)CC1 (single isomer, unassigned) [Compound 13a]
> 1000 nM

Output measured IC50 for this item: O=C(C1CCC(F)(CCC2c3c(F)cccc3-c3cncn32)CC1)N1CCCCC1 (mixture of isomers) [Compound 110b]
100 to 1000 nM

Output measured IC50 for this item: NC(=O)C1CCC(C(O)CC2c3ncccc3-c3cncn32)CC1 (stereo not shown) [Compound 63a]
> 1000 nM

Output measured IC50 for this item: OC(CC1c2nccc(F)c2-c2cncn21)C1CCCCC1 (single isomer, unassigned) [Compound 101b]
> 1000 nM

Output measured IC50 for this item: COc1ccc2c(n1)C(CC(N)C1CCCCC1)n1cncc1-2 (single isomer, unassigned) [Compound 118c]
> 1000 nM

Output measured IC50 for this item: OC(CC1c2nc(C(F)(F)F)ccc2-c2cncn21)C1CCC(F)(F)CC1 (single isomer, unassigned) [Compound 77a]
> 1000 nM

---

Consider the following molecules; for each one, report its pIC50.
target of assay: Recombinant human IDO (Homo sapiens, UniProt P14902)
procedure details: Bridge-IT tryptophan fluorescence assay of human IDO-1 inhibition
condition set: recombinant human IDO 7.5 nM, L-tryptophan
pIC50: −log10 of the molar value.

Output measured pIC50 for this item: CC(C)(O)C1CCC(F)(CCC2c3ccccc3-c3cncn32)CC1 (single isomer, unassigned) [Compound 61a]
< 6.00

Output measured pIC50 for this item: OC(CC1c2cc(F)ncc2-c2cncn21)C1CCCCC1 (single isomer, unassigned) [Compound 24c]
> 7.00

Output measured pIC50 for this item: OC(CC1c2ncccc2-c2cncn21)C1CCC(C2(O)CC2)CC1 (single isomer, unassigned) [Compound 117b]
6.00 to 7.00

Output measured pIC50 for this item: OC(CC1CCCCC1)CC1c2ncccc2-c2cncn21 (single isomer, unassigned) [Compound 62a]
6.00 to 7.00

Output measured pIC50 for this item: OC1CCC(F)(CCC2c3nccc(F)c3-c3cncn32)CC1 (centres unmarked) [Compound 103b]
< 6.00

Output measured pIC50 for this item: NC1CCC(F)(CCC2c3ccccc3-c3cncn32)CC1 (mixture of isomers) [Compound 104b]
6.00 to 7.00

Output measured pIC50 for this item: OC1CCC(F)(CCC2c3cc(F)ncc3-c3cncn32)CC1 (single isomer, unassigned) [Compound 58c]
< 6.00

Output measured pIC50 for this item: COc1ccc2c(n1)C(CC(O)C1CCC3(CC1)CC3)n1cncc1-2 (centres unmarked) [Compound 53a]
6.00 to 7.00

---

target of assay: Recombinant human IDO (Homo sapiens)
procedure details: Bridge-IT tryptophan fluorescence assay of human IDO-1 inhibition
condition set: recombinant human IDO 7.5 nM, L-tryptophan
Consider the following compounds; for each one, report its IC50.

Output measured IC50 for this item: O=C(O)C1CCC(F)(CCC2c3c(F)cccc3-c3cncn32)CC1 (single isomer, unassigned) [Compound 80a]
< 100 nM

Output measured IC50 for this item: CN(C)C(=O)C1CCC(F)(CCC2c3c(F)cccc3-c3cncn32)CC1 (stereo not drawn) [Compound 111b]
100 to 1000 nM

Output measured IC50 for this item: FC(CC1c2ncccc2-c2cncn21)C1CCCCC1 (single isomer, unassigned) [Compound 97b]
100 to 1000 nM

Output measured IC50 for this item: NC(=O)CC1CCC(F)(CCC2c3c(F)cccc3-c3cncn32)CC1 (single isomer, unassigned) [Compound 116b]
< 100 nM

Output measured IC50 for this item: OC(CC1c2cc(F)ncc2-c2cncn21)C1CCCCC1 (single isomer, unassigned) [Compound 24a]
> 1000 nM

Output measured IC50 for this item: FC1(CCC2c3ccccc3-c3cncn32)CCCCC1 (single isomer, unassigned) [Compound 1b]
100 to 1000 nM

Output measured IC50 for this item: OCC1CCC(C(O)CC2c3ncccc3-c3cncn32)CC1 (stereo not drawn) [Compound 73a]
> 1000 nM

Output measured IC50 for this item: NC(=O)C1CCC(F)(CCC2c3c(F)cccc3-c3cncn32)CC1 (single isomer, unassigned) [Compound 81a]
100 to 1000 nM

Output measured IC50 for this item: FC1(F)CCC(F)(CCC2c3c(Cl)cccc3-c3cncn32)CC1 (single isomer, unassigned) [Compound 72b]
100 to 1000 nM

Output measured IC50 for this item: CC1(C)CCC(C(O)CC2c3nc(F)ccc3-c3cncn32)CC1 (single isomer, unassigned) [Compound 25d]
> 1000 nM

Output measured IC50 for this item: OC(CC1c2ncccc2-c2cncn21)C1CCOCC1 (single isomer, unassigned) [Compound 92a]
> 1000 nM

Output measured IC50 for this item: OC(CC1c2ncccc2-c2cncn21)C1CCC(C2(O)CC2)CC1 (single isomer, unassigned) [Compound 117c]
> 1000 nM

Output measured IC50 for this item: OC1CCC(F)(CCC2c3cccc(F)c3-c3cncn32)CC1 (single isomer, unassigned) [Compound 35b]
100 to 1000 nM

Output measured IC50 for this item: CC1(C)CCC(F)(CCC2c3ncccc3-c3cncn32)CC1 (single isomer, unassigned) [Compound 48b]
> 1000 nM

Output measured IC50 for this item: OC1CCC(F)(CCC2c3ncccc3-c3cncn32)CC1 (single isomer, unassigned) [Compound 8b]
> 1000 nM
